TARGET_ENTITY: SMARCA2 (Homo sapiens)
Construct: endogenous in cells
ASSAY_SUMMARY: SMARCA2 Cellular Degradation Assay (Western blot analysis on Jess platform)
Type: cell-based
COND: ratio DC50 SMARCA4 / DC50 SMARCA2
OBSERVED_PROPERTY: Fold Selectivity SMARCA4/2

- CN(C(=O)C1(c2ccccc2)CCN(c2cnnc(-c3ccccc3O)c2)CC1)C1CCN([C@@H]2COC3(CCN(c4ccc([C@H]5CCC(=O)NC5=O)cc4)CC3)C2)CC1 (single isomer, unassigned) [Example 148]: 1462

[P] C[C@@H](Oc1ccc(C2CCC(=O)NC2=O)cc1)C1CCN(C(=O)C2(c3ccccc3)CCN(c3cnnc(-c4ccccc4O)c3)CC2)CC1 (mixture of isomers) [Example 3]
[Q] O=C1CCC(Nc2ccc(C3CCN(CC(=O)N4CCC5(CC4)CN(C(=O)C4(c6ccccc6)CCN(c6cnnc(-c7ccccc7O)c6)CC4)C5)CC3)cc2)C(=O)N1 (racemic) [Example 108]
Query string: Between P and Q , which one shows the smaller Fold Selectivity SMARCA4/2 number? Kindly give the label for the entry you pick.
Result string: P

###

TARGET_ENTITY: SMARCA2 (Homo sapiens)
Construct: endogenous in cells
ASSAY_SUMMARY: SMARCA2 Cellular Degradation Assay (Western blot analysis on Jess platform)
Type: cell-based
COND: ratio DC50 SMARCA4 / DC50 SMARCA2
OBSERVED_PROPERTY: Fold Selectivity SMARCA4/2

[I] CCN(C(=O)C1(c2ccccc2)CCN(c2cnnc(-c3ccccc3O)c2)CC1)C1CCN(CCC2CCN(c3ccc([C@H]4CCC(=O)NC4=O)cc3)CC2)CC1 [Example 187]
[II] CN(CC1(c2ccccc2)CCN(c2cnnc(-c3ccccc3O)c2)CC1)C(=O)C1CCN(CCC2CCN(c3ccc([C@H]4CCC(=O)NC4=O)cc3)CC2)C2(CCC2)C1 (mixture of isomers) [Example 146]
[III] CN(C(=O)CN1CCN(c2ccc([C@H]3CCC(=O)NC3=O)cc2)CC1)[C@H]1CC[C@H](NC(=O)C2(Oc3ccccc3)CCN(c3cnnc(-c4ccccc4O)c3)CC2)CC1 (racemic) [Example 173]
Query string: Order the entries above by descending Fold Selectivity SMARCA4/2. Use the labels to give the requested order.
Result string: III, I, II

###

TARGET_ENTITY: SMARCA2 (Homo sapiens, UniProt P51531)
Construct: endogenous in cells
Sequence (P51531 whole entry, species assumed): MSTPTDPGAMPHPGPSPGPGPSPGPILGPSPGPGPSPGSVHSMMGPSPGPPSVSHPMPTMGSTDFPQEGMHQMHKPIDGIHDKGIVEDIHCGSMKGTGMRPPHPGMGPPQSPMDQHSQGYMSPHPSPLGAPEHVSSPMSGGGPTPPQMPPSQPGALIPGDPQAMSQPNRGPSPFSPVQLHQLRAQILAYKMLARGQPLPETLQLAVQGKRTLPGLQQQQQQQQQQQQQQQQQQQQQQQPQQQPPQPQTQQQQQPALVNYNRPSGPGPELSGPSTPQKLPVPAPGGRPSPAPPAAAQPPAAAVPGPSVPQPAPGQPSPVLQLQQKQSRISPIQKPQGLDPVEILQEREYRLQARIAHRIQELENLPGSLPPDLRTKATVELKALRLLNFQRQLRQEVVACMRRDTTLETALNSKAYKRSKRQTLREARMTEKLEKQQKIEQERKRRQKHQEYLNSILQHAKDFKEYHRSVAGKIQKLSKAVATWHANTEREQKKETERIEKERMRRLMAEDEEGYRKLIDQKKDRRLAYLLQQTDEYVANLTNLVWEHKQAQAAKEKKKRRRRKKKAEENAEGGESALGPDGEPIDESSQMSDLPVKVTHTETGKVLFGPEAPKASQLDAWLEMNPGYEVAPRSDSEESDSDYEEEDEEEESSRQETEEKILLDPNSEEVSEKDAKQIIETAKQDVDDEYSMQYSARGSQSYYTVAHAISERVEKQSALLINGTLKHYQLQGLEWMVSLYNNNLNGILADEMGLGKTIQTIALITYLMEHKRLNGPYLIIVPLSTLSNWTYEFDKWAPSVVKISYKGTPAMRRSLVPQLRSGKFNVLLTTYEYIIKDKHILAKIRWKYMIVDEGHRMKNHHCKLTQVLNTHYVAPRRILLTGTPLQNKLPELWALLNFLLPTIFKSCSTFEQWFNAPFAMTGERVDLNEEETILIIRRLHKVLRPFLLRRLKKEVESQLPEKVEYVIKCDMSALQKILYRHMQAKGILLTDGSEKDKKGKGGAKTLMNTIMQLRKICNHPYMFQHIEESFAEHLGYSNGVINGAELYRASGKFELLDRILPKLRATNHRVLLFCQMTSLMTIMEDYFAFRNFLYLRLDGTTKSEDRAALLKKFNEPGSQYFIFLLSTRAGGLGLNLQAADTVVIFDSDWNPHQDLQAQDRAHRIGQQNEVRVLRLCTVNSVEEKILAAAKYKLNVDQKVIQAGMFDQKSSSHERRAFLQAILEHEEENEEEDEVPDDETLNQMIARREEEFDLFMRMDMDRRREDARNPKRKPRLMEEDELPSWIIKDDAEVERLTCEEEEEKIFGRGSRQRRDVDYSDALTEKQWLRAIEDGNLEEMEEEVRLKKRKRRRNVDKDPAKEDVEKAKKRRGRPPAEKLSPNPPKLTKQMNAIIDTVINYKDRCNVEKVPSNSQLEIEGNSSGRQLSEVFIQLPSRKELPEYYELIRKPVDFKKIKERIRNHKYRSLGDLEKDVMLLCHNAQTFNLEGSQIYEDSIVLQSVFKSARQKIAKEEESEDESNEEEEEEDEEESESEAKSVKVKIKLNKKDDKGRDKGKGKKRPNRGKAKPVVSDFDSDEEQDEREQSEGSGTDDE
ASSAY_SUMMARY: SMARCA2 Cellular Degradation Assay (Western blot analysis on Jess platform)
Assay type: cell-based
COND: cellular degradation
Experimental: SMARCA2 Cellular Degradation Assay Western Blot Analysis for SMARCA2 Degradation […] Following normalization, the percentage of SMARCA2 remaining per sample relative to the vehicle control was calculated as follows: […]
OBSERVED_PROPERTY: DC50 (nM)

Examples with answers:
* CN(C(=O)C1(c2ccnn2C)CCN(c2cnnc(-c3ccccc3O)c2)CC1)C1CCN(CCC2CCN(c3cccc4c3n(C)c(=O)n4C3CCC(=O)NC3=O)CC2)CC1 (racemic) [Example 62] | 0.25
* CN(C(=O)C1(c2ccccc2)CCN(c2cnnc(-c3ccccc3O)c2)CC1)C1CCN(CCC2CCN(c3cccc4c3n(C)c(=O)n4C3CCC(=O)NC3=O)CC2)CC1 (racemic) [Example 130] | 0.31

[a] Cc1ccccc1C1(C(=O)N2CC3(CN(CC4CCN(c5ccc(C6CCC(=O)NC6=O)cc5)CC4)C3)C2)CCN(c2cnnc(-c3ccccc3O)c2)CC1 (racemic) [Example 33]
[b] CN(CC1(c2ccccc2)CCN(c2cnnc(-c3ccccc3O)c2)CC1)C(=O)C1CCN(CCC2CCN(c3ccc([C@H]4CCC(=O)NC4=O)cc3)CC2)C2(CCC2)C1 (mixture of isomers) [Example 146]
Query string: Which shows the larger DC50 value: a or b ? Kindly give the label for the entry you pick.
Result string: a
(a: 11.7 nM, b: 5.57 nM)

[A] O=C1CCC(c2ccc(N3CCC(CN4CCN(C(=O)C5(c6ccccc6)CCN(c6cnnc(-c7ccccc7O)c6)CC5)CC4)CC3)cc2)C(=O)N1 (racemic) [Example 6]
[B] O=C1CCC(c2ccc(N3CCC(C(=O)N4CC5(C4)CN(C(=O)C4(c6ccccc6)CCN(c6cnnc(-c7ccccc7O)c6)CC4)C5)CC3)cc2)C(=O)N1 (racemic) [Example 20]
[C] O=C1CC[C@H](c2ccc(N3CCC(CCN4CCC(Oc5ccccc5)(C(=O)NCC5(c6ccccc6)CCN(c6cnnc(-c7ccccc7O)c6)CC5)CC4)CC3)cc2)C(=O)N1 (racemic) [Example 103]
[D] O=C1CC[C@H](c2ccc(N3CCC(CN4CC5(C4)CN(C(=O)C4(Oc6ccccc6Cl)CCN(c6cnnc(-c7ccccc7O)c6)CC4)C5)CC3)cc2)C(=O)N1 [Example 119]
[E] Cc1ccccc1OC1(C(=O)N(C)C2CCN(C(=O)CN3CCC(c4ccc([C@@H]5CCC(=O)NC5=O)cc4)CC3)CC2)CCN(c2cnnc(-c3ccccc3O)c2)CC1 (racemic) [Example 116]
Query string: Please list these molecules in decreasing order of DC50. Use the labels to give the requested order.
Result string: A, B, C, E, D

Value source: patent US20250051344A1
